Cited source: patent US20120289523A1

Below: a set of entries, each annotated with reported half-life at 1 μM.
Experiment: Metabolism of compounds, human liver microsomes
Format: in vitro ADME
Details: human, pooled liver microsomes; 1 μM compound, 0.3 mg/ml protein, 60 minutes at 37° C.; read-out: Microsomes t1/2 (mins) Human

Prompt: Given Cc1nc2ncnn2c2c1CCN2[C@H](c1ccc(F)cc1)C(F)(F)F , state its recorded half-life at 1 μM.
Completion: > 60 min

Prompt: Given Cc1nc2ncnn2c2c1CCN2[C@@H](C)c1ccccc1 , state its recorded half-life at 1 μM.
Completion: > 60 min

Prompt: Given Cc1nc2ncnn2c2c1CCN2[C@H](c1ccccc1)C(F)(F)F , state its recorded half-life at 1 μM.
Completion: > 60 min

###

Tested on: human colon adeno-carcinoma cell line Caco-2 or sub-clone TC7
Assay: Cell permeability of compounds (Caco-2 or TC7 monolayers)
Assay type: in vitro ADME
Conditions: ratio of Papp A-B to B-A, 10 μM, 60 minutes
Endpoint: Cell Perm A-B/B-A

# Structure String, Observed Result
records = [
    ("Cc1nc2ncnn2c2c1CCN2[C@@H](C)c1ccc(F)cc1", 0.85),
]

a = Cc1nc2ncnn2c2c1CCN2[C@H](c1ccc(F)cc1)C(F)(F)F
b = Cc1nc2ncnn2c2c1CCN2[C@@H](C)c1ccccc1
c = Cc1nc2ncnn2c2c1CCN2[C@H](c1ccccc1)C(F)(F)F
Prompt: Hello, I need these entries ordered by Cell Perm A-B/B-A, highest reading first. Thanks! # respond with the labels, arranged in the requested order
Completion: b, c, a
